Values were extracted from paper PMC9352680.

Target: T1, PUF4 RNA-binding domain (Saccharomyces cerevisiae, UniProt P25339 537-888)
T1 sequence: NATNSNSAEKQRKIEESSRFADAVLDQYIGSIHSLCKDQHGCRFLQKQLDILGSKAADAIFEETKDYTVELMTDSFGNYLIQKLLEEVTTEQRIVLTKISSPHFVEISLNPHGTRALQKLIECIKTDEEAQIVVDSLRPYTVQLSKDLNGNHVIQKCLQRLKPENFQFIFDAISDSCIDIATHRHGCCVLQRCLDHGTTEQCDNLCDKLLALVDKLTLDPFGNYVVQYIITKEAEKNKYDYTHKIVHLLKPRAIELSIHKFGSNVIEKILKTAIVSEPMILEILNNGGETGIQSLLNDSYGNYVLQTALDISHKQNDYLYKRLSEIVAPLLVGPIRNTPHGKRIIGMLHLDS
Test: Mg; RNA-MaP; 20 mM Na-HEPES pH 7.4, 30 mM KOAc, 0.75 mM MgCl2, 0.1% Tween-20, 5% glycerol, 0.1 mg/mL BSA, 2 mM DTT; 25 C; 0.0125-409.6 nM protein
Conditions: tags: N-His6-TEV cleaved; C-SNAP kept, Cy3B-labelled; label: tethered on chip by stalled RNA polymerase
Output satisfied for records whose Kd is lower than 100 nM, not satisfied for records at or above 100 nM.

Sample answers from the record:
Regarding ACAAACCGACACUAUUAACACAAAC (ssRNA) [Id_ii_S3_P4E.4_K4.3_C4.2_[T-1G]_H4.3_A4.1_F4.1_T4.2_[G10A]_[T11C]] , kindly confirm whether its Kd is beneath 100 nM.
not satisfied

Regarding UCUCUUUGUAGCUGCCUCUCUU (ssRNA) [Ic_S1_P5E.1_K5.1_C5.1_H5.1_A5.1_[T5G]_[T6C]_[A7T]_F5.1_[T8G]_[T9C]_[A10C]_T5.1] , kindly confirm whether its Kd is beneath 100 nM.
not satisfied

Regarding Ic_S2_P4E.1_K4.1_C4.1_H4.1_A4.1_[T5A]_[A6T]_[T7A]_F4.1_[T8A]_[A9T]_T4.1 (ssRNA) RNA: UUUGAUUAAUAUGAUAUCGUUCUUUCUUGUAAUAAUUUCUUUCUCGAUAUCAUAUUAAUCUUU , kindly confirm whether its Kd is beneath 100 nM.
satisfied

Regarding UCUCUUUAUGUAUAUAUAUCUCUU (ssRNA) [Id_ii_S1_P3E.2_K3.1_C3.2_[C-2T]_[T-1A]_H3.1_A3.1_F3.1_T3.2] , kindly confirm whether its Kd is beneath 100 nM.
satisfied

Regarding ACAAACGAUAUAUUAUUAGCACAAAC (ssRNA) [Id_ii_S3_P5E.3_K5.2_C5.2_[C-2G]_[T-1A]_H5.2_A5.1_F5.1_T5.2_[T11G]_[A12C]] , kindly confirm whether its Kd is beneath 100 nM.
not satisfied

---
Regarding UCUCUUUGUACCAAGUCUCUU (ssRNA) [Ic_S1_P4E.1_K4.1_C4.1_H4.1_A4.1_[T5C]_[A6C]_[T7A]_F4.1_[T8A]_[A9G]_T4.1] , kindly confirm whether its Kd is beneath 100 nM.
not satisfied

Regarding Ib_S4_P4E.1_K4.1_C4.1_H4.1_[T1C]_A4.1_F4.1_[T8C]_T4.1 (ssRNA) RNA: UUUGACAACUGAUCGUUCUUUCUCGUAUAUCAUUCUUUCUCGAUCAGUUGUCUUU , kindly confirm whether its Kd is beneath 100 nM.
not satisfied

Regarding UCUCUUUGUACUUUUUCUCUU (ssRNA) [Ic_S1_P4E.1_K4.1_C4.1_H4.1_A4.1_[T5C]_[A6T]_F4.1_[A9T]_T4.1] , kindly confirm whether its Kd is beneath 100 nM.
satisfied

Regarding UCUCUUUGUACCUUUAUCUCUU (ssRNA) [Ic_S1_P5E.1_K5.1_C5.1_H5.1_A5.1_[T5C]_[T6C]_[A7T]_F5.1_T5.1] , kindly confirm whether its Kd is beneath 100 nM.
satisfied

Regarding Ic_S2_P4E.1_K4.1_C4.1_H4.1_A4.1_[A6T]_F4.1_[T8A]_[A9C]_T4.1 (ssRNA) RNA: UUUGAUUAAUAUGAUAUCGUUCUUUCUUGUAUUUACUUCUUUCUCGAUAUCAUAUUAAUCUUU , kindly confirm whether its Kd is beneath 100 nM.
not satisfied
